- Measured on: human GluN1/GluN2B NMDA receptors (Homo sapiens, UniProt Q05586+Q13224)
- Sequence (Q13224 27-1484, other chains not shown): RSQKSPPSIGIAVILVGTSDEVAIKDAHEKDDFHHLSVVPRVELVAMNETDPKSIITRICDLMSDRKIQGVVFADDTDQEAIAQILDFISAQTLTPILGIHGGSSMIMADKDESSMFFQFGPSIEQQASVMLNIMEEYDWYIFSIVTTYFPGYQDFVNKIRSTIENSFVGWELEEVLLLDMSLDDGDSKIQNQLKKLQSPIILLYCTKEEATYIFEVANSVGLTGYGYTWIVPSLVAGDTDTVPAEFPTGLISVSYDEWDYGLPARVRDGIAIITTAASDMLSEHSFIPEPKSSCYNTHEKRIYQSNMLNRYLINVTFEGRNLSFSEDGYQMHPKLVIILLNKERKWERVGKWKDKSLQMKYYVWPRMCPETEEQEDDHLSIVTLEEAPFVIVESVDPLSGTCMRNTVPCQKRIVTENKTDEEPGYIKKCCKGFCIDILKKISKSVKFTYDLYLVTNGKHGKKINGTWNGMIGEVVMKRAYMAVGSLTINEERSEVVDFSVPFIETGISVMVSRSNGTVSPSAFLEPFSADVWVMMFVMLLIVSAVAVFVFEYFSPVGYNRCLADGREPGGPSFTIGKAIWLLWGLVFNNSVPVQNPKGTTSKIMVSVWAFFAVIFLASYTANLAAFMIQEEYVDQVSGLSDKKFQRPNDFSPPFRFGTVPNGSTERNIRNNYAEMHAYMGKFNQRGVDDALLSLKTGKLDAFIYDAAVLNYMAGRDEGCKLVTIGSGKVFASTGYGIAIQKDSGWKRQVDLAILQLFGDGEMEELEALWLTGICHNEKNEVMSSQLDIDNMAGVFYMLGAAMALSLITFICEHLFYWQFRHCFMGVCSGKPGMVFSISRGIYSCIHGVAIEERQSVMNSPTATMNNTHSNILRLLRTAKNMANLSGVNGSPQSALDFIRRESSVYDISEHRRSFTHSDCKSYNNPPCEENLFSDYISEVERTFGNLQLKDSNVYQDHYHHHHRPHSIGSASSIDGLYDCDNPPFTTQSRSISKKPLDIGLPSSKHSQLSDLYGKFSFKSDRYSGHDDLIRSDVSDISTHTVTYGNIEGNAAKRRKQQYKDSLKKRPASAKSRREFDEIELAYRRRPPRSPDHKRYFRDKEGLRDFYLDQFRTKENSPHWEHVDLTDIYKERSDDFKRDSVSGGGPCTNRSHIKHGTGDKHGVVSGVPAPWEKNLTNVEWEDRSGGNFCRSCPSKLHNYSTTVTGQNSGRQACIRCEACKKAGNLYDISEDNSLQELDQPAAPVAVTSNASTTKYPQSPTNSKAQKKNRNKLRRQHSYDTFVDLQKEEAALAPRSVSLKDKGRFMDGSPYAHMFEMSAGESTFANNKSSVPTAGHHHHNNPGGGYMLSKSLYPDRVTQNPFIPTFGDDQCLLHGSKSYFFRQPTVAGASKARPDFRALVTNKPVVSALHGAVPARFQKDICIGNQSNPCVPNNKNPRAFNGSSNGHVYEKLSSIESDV
- Method description: Calcium flux (FLIPR) assay on cloned human NR1/GluN2B ion channels expressed in mammalian cells, standard assay
- Measurement parameters: glutamate ~EC40 and 10 μM glycine, stable cell line with Tet-On induced expression
Measured parameter: IC50 (nM)
Provide only the numeric value, understood in nM.

Kindly state the measured IC50 obtained for Cc1cccc(-c2cnc3cnn(CC(=O)C4CC4)c3c2)c1 with human GluN1/GluN2B NMDA receptors (Homo sapiens, UniProt Q05586+Q13224).
8

Follow-up item: O=C(Cn1ncc2ncc(-c3cccc(OC(F)(F)F)c3)cc21)C1CC1
31

Subsequent entry: Cc1cc(-c2cnc3cnn(C[C@H](O)C4CC4)c3c2)ccc1F
109

// next record CN1CC[C@@H](Cn2ncc3ncc(-c4ccc(F)c(C(F)F)c4)cc32)C1=O
1210

Please turn your attention to the following entry.
Find IC50 (human GluN1/GluN2B NMDA receptors (Homo sapiens, UniProt Q05586+Q13224)) for the entry CC(C)C(=O)Cn1ncc2ncc(-c3cccc(F)c3)cc21
30
